# assayDetails: Pharmacokinetics in C57BL/6 mice after single IV and PO administration
# Assay type: in vivo
# appliedConditions: C57BL/6, mouse; plasma; 3 mg/kg PO single dose; read-out: AUC0–24h
attributeMeasured: AUC(0-t) (ng·h/mL)
Kindly provide the numeric value in ng·h/mL only, without the unit symbol.

[ask] Respond only with AUC(0-t) recorded for N=c1c2c(-c3ccccc3)c(-c3ccccc3)n(Cc3ccccc3)c2ncn1[C@H]1CC[C@H](O)CC1 [metarrestin]
[reply] 823

###

# assayDetails: Steady-state PK in KPC mice fed metarrestin-infused chow
# Assay type: in vivo
# appliedConditions: KPC, mouse, po; plasma; day 10, chow, target dose 10 mg/kg/day
attributeMeasured: Tmax (h)
Kindly provide the numeric value in h only, without the unit symbol.

[ask] Respond only with Tmax recorded for `N=c1c2c(-c3ccccc3)c(-c3ccccc3)n(Cc3ccccc3)c2ncn1[C@H]1CC[C@H](O)CC1`
[reply] 9
